Numbers sourced from patent US20100234377A1.

molecular target: human Prostaglandin D Synthase (GST2) (Homo sapiens); construct: the open reading frame of human Prostaglandin D Synthase was amplified from cDNA; made in house; host or cells: E. coli TOP10F'; assay: Homogeneous biochemical assay of human Prostaglandin D Synthase (GST2) based on its glutathion-S-transferase activity (GSH conjugation to monochlorobimane, fluorescence); settings: given beside the compound name in Examples 1 to 167; read-out: Potency Range (GST2 IC50)
pIC50: −log10 of the molar value.
OBSERVABLE: pIC50

- CPD_SMILES: "O=C(Nc1ccc(-c2cccs2)cc1)N1CCN(C(=O)c2cccc(F)c2)CC1"
  ASSAY_TARGET: "human Prostaglandin D Synthase (GST2) (Homo sapiens)"
  RECORDED_VALUE: "7.00 to 7.96"
- CPD_SMILES: "O=C(Nc1ccc(N2CCOCC2)nc1)N1CCN(C(=O)c2cccc(F)c2)CC1"
  ASSAY_TARGET: "human Prostaglandin D Synthase (GST2) (Homo sapiens)"
  RECORDED_VALUE: "7.00 to 7.96"
- CPD_SMILES: "O=C(c1cccc(F)c1)N1CCN(C(=S)Nc2ccc(N3CCOCC3)nc2)CC1"
  ASSAY_TARGET: "human Prostaglandin D Synthase (GST2) (Homo sapiens)"
  RECORDED_VALUE: "7.00 to 7.96"
- CPD_SMILES: "O=C(c1cccc(F)c1)N1CCN(C(=S)Nc2ccc(C(F)(F)F)cc2)CC1"
  ASSAY_TARGET: "human Prostaglandin D Synthase (GST2) (Homo sapiens)"
  RECORDED_VALUE: "7.00 to 7.96"
- CPD_SMILES: "O=C(Nc1cc(Cl)nc(Cl)c1)N1CCN(C(=O)c2cccc(F)c2)CC1"
  ASSAY_TARGET: "human Prostaglandin D Synthase (GST2) (Homo sapiens)"
  RECORDED_VALUE: "6.00 to 7.00"
- CPD_SMILES: "O=C(Nc1nc2ccc(F)cc2s1)N1CCN(C(=O)c2cccc(F)c2)CC1"
  ASSAY_TARGET: "human Prostaglandin D Synthase (GST2) (Homo sapiens)"
  RECORDED_VALUE: "7.00 to 7.96"
- CPD_SMILES: "CCOC(=O)c1ccc(NC(=O)N2CCN(C(=O)c3cccc(F)c3)CC2)cc1"
  ASSAY_TARGET: "human Prostaglandin D Synthase (GST2) (Homo sapiens)"
  RECORDED_VALUE: "6.00 to 7.00"
- CPD_SMILES: "O=C(O)c1ccc(NC(=O)N2CCN(C(=O)c3cccc(F)c3)CC2)cc1F"
  ASSAY_TARGET: "human Prostaglandin D Synthase (GST2) (Homo sapiens)"
  RECORDED_VALUE: "6.00 to 7.00"

----------
Below is a list of entries, each paired with its recorded IC50 value.
biological target: human Prostaglandin D Synthase (GST2) (Homo sapiens, UniProt O60760); construct: the open reading frame of human Prostaglandin D Synthase was amplified from cDNA; made in house; host or cells: E. coli TOP10F'; assay: Homogeneous biochemical assay of human Prostaglandin D Synthase (GST2) based on its glutathion-S-transferase activity (GSH conjugation to monochlorobimane, fluorescence); details: given beside the compound name in Examples 1 to 167; read-out: Potency Range (GST2 IC50)
Sequence (O60760 whole entry): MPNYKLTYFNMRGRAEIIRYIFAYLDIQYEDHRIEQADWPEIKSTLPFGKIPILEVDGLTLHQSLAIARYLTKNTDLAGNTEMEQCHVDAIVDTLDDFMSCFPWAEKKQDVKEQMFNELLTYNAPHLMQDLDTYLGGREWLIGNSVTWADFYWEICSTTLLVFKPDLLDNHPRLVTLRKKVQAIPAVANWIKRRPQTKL
OBSERVABLE: IC50

- CPD_SMILES: "CNC(=O)c1cccc(NC(=O)N2CCN(C(=O)c3cccc(F)c3)CC2)c1"
  OBSERVABLE: "IC50"
  RECORDED_VALUE: "101 to 1000 nM"
- CPD_SMILES: "O=C(Nc1cccc(NC(=O)N2CCN(C(=O)c3cccc(F)c3)CC2)c1)c1cccc[n+]1[O-]"
  OBSERVABLE: "IC50"
  RECORDED_VALUE: "101 to 1000 nM"
- CPD_SMILES: "O=C(Nc1ccc(NS(=O)(=O)c2ccc(F)cc2)cc1)N1CCN(C(=O)c2cccc(F)c2)CC1"
  OBSERVABLE: "IC50"
  RECORDED_VALUE: "11 to 100 nM"
- CPD_SMILES: "O=C(Nc1ccc(Cl)nc1)N1CCN(C(=O)c2cccc(F)c2)CC1"
  OBSERVABLE: "IC50"
  RECORDED_VALUE: "101 to 1000 nM"
- CPD_SMILES: "Cc1cc2nc(NC(=O)N3CCN(C(=O)c4cccc(F)c4)CC3)sc2cc1C"
  OBSERVABLE: "IC50"
  RECORDED_VALUE: "1 to 10 nM"
- CPD_SMILES: "O=C(Nc1cccc(Nc2ccc(F)cc2)c1)N1CCN(C(=O)c2cccc(F)c2)CC1"
  OBSERVABLE: "IC50"
  RECORDED_VALUE: "101 to 1000 nM"
- CPD_SMILES: "NC(=O)c1cc(NC(=O)N2CCN(C(=O)c3cccc(F)c3)CC2)ccc1F"
  OBSERVABLE: "IC50"
  RECORDED_VALUE: "101 to 1000 nM"
- CPD_SMILES: "O=C(Nc1cccc(NC(=O)N2CCN(C(=O)c3cccc(F)c3)CC2)c1)c1cc[n+]([O-])cc1"
  OBSERVABLE: "IC50"
  RECORDED_VALUE: "101 to 1000 nM"

----------
Below is a list of entries, each paired with its recorded IC50 value.
Biological target: human Prostaglandin D Synthase (GST2) (Homo sapiens)
Construct: the open reading frame of human Prostaglandin D Synthase was amplified from cDNA; made in house; host or cells: E. coli TOP10F'
Assay: Homogeneous biochemical assay of human Prostaglandin D Synthase (GST2) based on its glutathion-S-transferase activity (GSH conjugation to monochlorobimane, fluorescence)
Settings: given beside the compound name in Examples 1 to 167; read-out: Potency Range (GST2 IC50)
Text: Homogeneous, Biochemical Assay Monitoring the Activity of Human Prostaglandin D Synthase Based on the Glutathion-S-Transferase Activity of the Enzyme Prostaglandin D2 synthesis by Prostaglandin D synthase (GST2) requires transfer of Glutathion (GSH) to the substrate, Prostaglandin H2. […] Therefore, the enzymatic reaction can be monitored by total fluorescence measurement. In brief, the open reading frame of human Prostaglandin D Synthase was amplified from cDNA using the primer pair: […]

- MOLECULE: "O=C(Nc1ccc(S(=O)(=O)N2CCOCC2)cc1)N1CCN(C(=O)c2cccc(F)c2)CC1 [Compound 91]"
  IC50: "0.011 to 0.1 µM"
- MOLECULE: "CN1CCN(c2ccc(NC(=O)N3CCN(C(=O)c4cccc(F)c4)CC3)cc2F)CC1 [Compound 60]"
  IC50: "0.101 to 1 µM"
- MOLECULE: "CS(=O)(=O)N(c1ccc(NC(=O)N2CCN(C(=O)c3cccc(F)c3)CC2)cc1)S(C)(=O)=O [Compound 129]"
  IC50: "0.011 to 0.1 µM"
- MOLECULE: "Nc1ccc(NC(=O)N2CCN(C(=O)c3cc(F)ccc3F)CC2)cc1 [Compound 113]"
  IC50: "0.101 to 1 µM"
- MOLECULE: "Cn1cnnc1-c1cccc(NC(=O)N2CCN(C(=O)c3cccc(F)c3)CC2)c1 [Compound 76]"
  IC50: "0.101 to 1 µM"
- MOLECULE: "O=C(Nc1nc(-c2ccccc2)cs1)N1CCN(C(=O)c2cccc(F)c2)CC1 [Compound 69]"
  IC50: "0.011 to 0.1 µM"
- MOLECULE: "O=C(Nc1ccc(NS(=O)(=O)C2CC2)cc1)N1CCN(C(=O)c2cc(F)ccc2F)CC1 [Compound 132]"
  IC50: "0.101 to 1 µM"
- MOLECULE: "O=C(Nc1ccc(Oc2cccnc2)nc1)N1CCN(C(=O)c2cccc(F)c2)CC1 [Compound 44]"
  IC50: "0.101 to 1 µM"

----------
biological target: human Prostaglandin D Synthase (GST2) (Homo sapiens); construct: the open reading frame of human Prostaglandin D Synthase was amplified from cDNA; made in house; host or cells: E. coli TOP10F'; assay: Homogeneous biochemical assay of human Prostaglandin D Synthase (GST2) based on its glutathion-S-transferase activity (GSH conjugation to monochlorobimane, fluorescence); settings: given beside the compound name in Examples 1 to 167; read-out: Potency Range (GST2 IC50)
pIC50: −log10 of the molar value.
OBSERVABLE: pIC50

- CPD_SMILES: "O=C(c1cccc([N+](=O)[O-])c1)N1CCN(C(=S)Nc2ccc(N3CCOCC3)nc2)CC1"
  ASSAY_TARGET: "human Prostaglandin D Synthase (GST2) (Homo sapiens)"
  RECORDED_VALUE: "6.00 to 7.00"
- CPD_SMILES: "O=C(Nc1ccc([N+](=O)[O-])cc1)N1CCN(C(=O)c2cccc(F)c2)CC1"
  ASSAY_TARGET: "human Prostaglandin D Synthase (GST2) (Homo sapiens)"
  RECORDED_VALUE: "6.00 to 7.00"
- CPD_SMILES: "O=C(Nc1nnc(-c2ccccc2)o1)N1CCN(C(=O)c2cccc(F)c2)CC1"
  ASSAY_TARGET: "human Prostaglandin D Synthase (GST2) (Homo sapiens)"
  RECORDED_VALUE: "7.00 to 7.96"
- CPD_SMILES: "O=C(Nc1ccc(F)cc1)N1CCN(C(=O)c2cccc(F)c2)CC1"
  ASSAY_TARGET: "human Prostaglandin D Synthase (GST2) (Homo sapiens)"
  RECORDED_VALUE: "6.00 to 7.00"
